System: Calf thymus DNA
Assay: Binding affinity to calf thymus DNA assessed as bathochromic shift in maximum absorption at 50 uM by UV-Vis absorption spectroscopic method
Type: nucleic-acid assay
Conditions: Bos taurus
Activity calls are given as the source filed them. No cut-off for these calls is given here.
One label from this list, please: label 1 (active), label 0 (inactive)

*Q* What did this assay record as the result for C[n+]1cc(-c2c3ccccc3c(-c3cc4ccccc4[n+](C)c3)c3ccccc23)cc2ccccc21 ?
*A* label 1

*Q* Returns: the outcome recorded for CCc1ccc2c(-c3cc[n+](C)cc3)c3ccccc3c(-c3cc[n+](C)cc3)c2c1 in this assay.
*A* label 1

*Q* GET /call?item= Cc1ccc2c(-c3cc[n+](C)cc3)c3ccccc3c(-c3cc[n+](C)cc3)c2c1 returns the recorded outcome of this test.
*A* label 1

*Q* Test call for this compound, please: C[n+]1ccccc1-c1c2ccccc2c(-c2cccc[n+]2C)c2ccccc12
*A* label 0

*Q* Assay outcome for C[n+]1ccc(-c2c3ccccc3c(-c3cc[n+](C)cc3)c3cc(C(C)(C)C)ccc23)cc1 : what was it?
*A* label 1

*Q* Look up the recorded call for C[n+]1ccc(-c2c3ccccc3c(-c3cc[n+](C)cc3)c3ccccc23)cc1 in this test.
*A* label 1

*Q* Identify the outcome logged in this assay for the compound shown: C[n+]1cccc(-c2c3ccccc3c(-c3ccc[n+](C)c3)c3ccccc23)c1
*A* label 1

*Q* Answer briefly: the call reported for c1ccc2c(-c3ccncc3)c3ccccc3c(-c3ccncc3)c2c1 in this assay.
*A* label 0
